- Test: Unbound brain to plasma concentration ratio in Sprague-Dawley rat at 10 mg/kg, po measured after 0.25 hrs
- Type: ADME, organism-based
- Measurement context: brain and plasma, read-out: K(p,uu,brain)
Reported endpoint: Kp uu at 0.25 h

Which Kp uu at 0.25 h is listed for FC(F)Oc1cc(-n2cc(COc3ncccn3)nn2)ccc1Cl ?
0.91

###

- Measurement target: Glutamate receptor ionotropic, NMDA 2C (Homo sapiens, UniProt Q05586+Q14957)
- Sequence (Q14957 whole entry, one chain of several): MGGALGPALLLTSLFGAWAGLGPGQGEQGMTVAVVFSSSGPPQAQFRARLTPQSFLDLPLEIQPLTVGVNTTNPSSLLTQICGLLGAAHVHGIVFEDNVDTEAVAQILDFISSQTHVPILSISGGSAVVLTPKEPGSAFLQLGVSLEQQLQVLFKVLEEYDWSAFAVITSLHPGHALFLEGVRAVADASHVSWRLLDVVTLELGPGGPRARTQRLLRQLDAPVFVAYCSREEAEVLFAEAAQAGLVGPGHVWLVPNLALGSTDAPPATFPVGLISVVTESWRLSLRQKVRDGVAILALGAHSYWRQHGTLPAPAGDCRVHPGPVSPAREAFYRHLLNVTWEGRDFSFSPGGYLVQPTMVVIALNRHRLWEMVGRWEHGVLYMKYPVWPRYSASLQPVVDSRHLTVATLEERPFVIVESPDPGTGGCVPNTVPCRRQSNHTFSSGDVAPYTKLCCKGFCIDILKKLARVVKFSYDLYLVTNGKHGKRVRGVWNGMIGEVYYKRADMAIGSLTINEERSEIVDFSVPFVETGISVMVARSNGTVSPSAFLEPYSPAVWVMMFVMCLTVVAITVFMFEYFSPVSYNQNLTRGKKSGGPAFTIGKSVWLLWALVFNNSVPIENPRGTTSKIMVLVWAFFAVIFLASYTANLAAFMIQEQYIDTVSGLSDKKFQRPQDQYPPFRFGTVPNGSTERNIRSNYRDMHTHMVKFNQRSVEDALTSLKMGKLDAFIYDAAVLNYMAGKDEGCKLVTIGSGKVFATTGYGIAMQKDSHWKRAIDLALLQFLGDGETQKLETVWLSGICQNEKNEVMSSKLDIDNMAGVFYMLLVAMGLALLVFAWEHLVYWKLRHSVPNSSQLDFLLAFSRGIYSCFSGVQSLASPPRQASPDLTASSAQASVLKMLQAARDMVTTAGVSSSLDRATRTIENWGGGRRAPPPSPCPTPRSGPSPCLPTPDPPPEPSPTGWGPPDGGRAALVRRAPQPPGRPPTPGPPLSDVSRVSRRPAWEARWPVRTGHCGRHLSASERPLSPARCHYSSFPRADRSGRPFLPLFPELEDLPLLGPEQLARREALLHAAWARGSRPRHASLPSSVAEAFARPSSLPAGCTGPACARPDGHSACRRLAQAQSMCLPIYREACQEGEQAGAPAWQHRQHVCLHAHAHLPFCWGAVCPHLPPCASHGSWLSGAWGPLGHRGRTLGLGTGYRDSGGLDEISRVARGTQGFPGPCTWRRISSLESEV
- Test: Inhibition of human GluN2C receptor by FLIPR assay
Assignment: determine reported IC50 for the given compounds.

Which IC50 is listed for COCc1ccnc(OCc2cn(-c3ccc(F)c(OC(F)F)c3)nn2)n1 ?
> 10 µM

Which IC50 is listed for FC(F)Oc1cc(-n2cc(COc3ncccn3)nn2)ccc1Cl ?
> 10 µM

Data origin, for the record: ChEMBL document CHEMBL5316339
